System: HeLa Kyoto
Experiment: melting temperature (median over replicates), in situ; higher = more thermally stable
Conditions: cell cycle stage: mitosis
property.name: melting temperature (°C)
Please state the figure in °C; there is no need to write the unit.

Task item: Print HeLa Kyoto melting temperature for MFLTRSEYDRGVNTFSPEGRLFQVEYAIEAIKLGSTAIGIQTSEGVCLAVEKRITSPLMEPSSIEKIVEIDAHIGCAMSGLIADAKTLIDKARVETQNHWFTYNETMTVESVTQAVSNLALQFGEEDADPGAMSRPFGVALLFGGVDEKGPQLFHMDPSGTFVQCDARAIGSASEGAQSSLQEVYHKSMTLKEAIKSSLIILKQVMEEKLNATNIELATVQPGQNFHMFTKEELEEVIKDI [PSMA5] .
Reply: 53.9

Task item: Print HeLa Kyoto melting temperature for MENFRKVRSEEAPAGCGAEGGGPGSGPFADLAPGAVHMRVKEGSKIRNLMAFATASMAQPATRAIVFSGCGRATTKTVTCAEILKRRLAGLHQVTRLRYRSVREVWQSLPPGPTQGQTPGEPAASLSVLKNVPGLAILLSKDALDPRQPGYQPPNPHPGPSSPPAAPASKRSLGEPAAGEGSAKRSQPEPGVADEDQTA [RPP25] .
Reply: 53.7

Task item: Print HeLa Kyoto melting temperature for MPRDNMASLIQRIARQACLTFRGSGGGRGASDRDAASGPEAPMQPGFPENLSKLKSLLTQLRAEDLNIAPRKATLQPLPPNLPPVTYMHIYETDGFSLGVFLLKSGTSIPLHDHPGMHGMLKVLYGTVRISCMDKLDAGGGQRPRALPPEQQFEPPLQPREREAVRPGVLRSRAEYTEASGPCILTPHRDNLHQIDAVEGPAAFLDILAPPYDPDDGRDCHYYRVLEPVRPKEASSSACDLPREVWLLETPQADDFWCEGEPYPGPKVFP [ADO] .
Reply: 53.7

----------
Tested on: HeLa Kyoto;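 further: HeLa Kyoto cells synchronized by double thymidine or nocodazole block, proteins quantified by TMT10plex mass spectrometry, three independent biological replicates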
Assay: melting temperature (median over replicates), in situ; higher = more thermally stable
Conditions: cell cycle stage: G1/S
property.name: melting temperature (°C)
Please state the figure in °C; there is no need to write the unit.

Task item: Supply measured melting temperature of CREBBP in your reply.
Reply: 52

Task item: Supply measured melting temperature of MDWLMGKSKAKPNGKKPAAEERKAYLEPEHTKARITDFQFKELVVLPREIDLNEWLASNTTTFFHHINLQYSTISEFCTGETCQTMAVCNTQYYWYDERGKKVKCTAPQYVDFVMSSVQKLVTDEDVFPTKYGREFPSSFESLVRKICRHLFHVLAHIYWAHFKETLALELHGHLNTLYVHFILFAREFNLLDPKETAIMDDLTEVLCSGAGGVHSGGSGDGAGSGGPGAQNHVKER [MOB2] in your reply.
Reply: 50.1

Task item: Supply measured melting temperature of MNIRNARPEDLMNMQHCNLLCLPENYQMKYYFYHGLSWPQLSYIAEDENGKIVGYVLAKMEEDPDDVPHGHITSLAVKRSHRRLGLAQKLMDQASRAMIENFNAKYVSLHVRKSNRAALHLYSNTLNFQISEVEPKYYADGEDAYAMKRDLTQMADELRRHLELKEKGRHVVLGAIENKVESKGNSPPSSGEACREEKGLAAEDSGGDSKDLSEVSETTESTDVKDSSEASDSAS [NAA10] in your reply.
Reply: 53.4

Task item: Supply measured melting temperature of MAVPAAAMGPSALGQSGPGSMAPWCSVSSGPSRYVLGMQELFRGHSKTREFLAHSAKVHSVAWSCDGRRLASGSFDKTASVFLLEKDRLVKENNYRGHGDSVDQLCWHPSNPDLFVTASGDKTIRIWDVRTTKCIATVNTKGENINICWSPDGQTIAVGNKDDVVTFIDAKTHRSKAEEQFKFEVNEISWNNDNNMFFLTNGNGCINILSYPELKPVQSINAHPSNCICIKFDPMGKYFATGSADALVSLWDVDELVCVRCFSRLDWPVRTLSFSHDGKMLASASEDHFIDIAEVETGDKLWEVQCESPTFTVAWHPKRPLLAFACDDKDGKYDSSREAGTVKLFGLPNDS [THOC3] in your reply.
Reply: 50.6

Task item: Supply measured melting temperature of MVLLESEQFLTELTRLFQKCRTSGSVYITLKKYDGRTKPIPKKGTVEGFEPADNKCLLRATDGKKKISTVVSSKEVNKFQMAYSNLLRANMDGLKKRDKKNKTKKTKAAAAAAAAAPAAAATAPTTAATTAATAAQ [SRP14] in your reply.
Reply: 53.6

Task item: Supply measured melting temperature of MAAPAQQTTQPGGGKRKGKAQYVLAKRARRCDAGGPRQLEPGLQGILITCNMNERKCVEEAYSLLNEYGDDMYGPEKFTDKDQQPSGSEGEDDDAEAALKKEVGDIKASTEMRLRRFQSVESGANNVVFIRTLGIEPEKLVHHILQDMYKTKKKKTRVILRMLPISGTCKAFLEDMKKYAETFLEPWFKAPNKGTFQIVYKSRNNSHVNREEVIRELAGIVCTLNSENKVDLTNPQYTVVVEIIKAVCCLSVVKDYMLFRKYNLQEVVKSPKDPSQLNSKQGNGKEAKLESADKSDQNNTAEGKNNQQVPENTEELGQTKPTSNPQVVNEGGAKPELASQATEGSKSNENDFS [THUMPD1] in your reply.
Reply: 53.7
